Biological target: Mu-type opioid receptor (Homo sapiens) (UniProt P35372)
Sequence (P35372 whole entry): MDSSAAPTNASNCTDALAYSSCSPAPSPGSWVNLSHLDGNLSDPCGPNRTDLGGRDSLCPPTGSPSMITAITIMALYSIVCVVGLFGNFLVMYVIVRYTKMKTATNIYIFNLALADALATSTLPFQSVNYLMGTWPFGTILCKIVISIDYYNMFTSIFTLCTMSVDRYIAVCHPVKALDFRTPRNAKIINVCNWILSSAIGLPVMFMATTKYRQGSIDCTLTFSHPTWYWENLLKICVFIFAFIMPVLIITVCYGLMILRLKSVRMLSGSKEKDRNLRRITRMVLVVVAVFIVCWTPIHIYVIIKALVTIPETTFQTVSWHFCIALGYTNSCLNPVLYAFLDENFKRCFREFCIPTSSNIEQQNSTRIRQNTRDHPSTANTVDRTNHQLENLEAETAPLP
Assay: Agonist activity at human mu opioid receptor expressed in CHO cell membranes at 10 uM incubated for 60 mins by [35S]GTPgammaS binding assay
Type: functional
Activity calls are given as the source filed them. No cut-off for these calls is given here.

{"columns": ["compound", "Activity"],
 "data": [
  ["CC(C)[C@@H](CC1CCCCC1)NC(=O)[C@H]1Cc2ccc(O)cc2CN1", "inactive"],
  ["CC1CCC(C[C@@H](NC(=O)[C@H]2Cc3ccc(O)cc3CN2)C(C)C)CC1 (stereo not given in full)", "inactive"],
  ["CC(C)[C@@H](CC1CCCC1)NC(=O)[C@H]1Cc2ccc(C(N)=O)cc2CN1", "inactive"],
  ["CC(C)[C@@H](CC1CCCCC1)NC(=O)[C@@H]1Cc2ccc(O)cc2CN1", "inactive"],
  ["CC(C)[C@@H](CC1CCCCC1)NC(=O)[C@H]1Cc2ccc(F)cc2CN1", "inactive"]
]}
